Conditions: human, Liver

molecule	Hepatotoxicity (cytolytic)
Cc1ncc(C[n+]2csc(CCO)c2C)c(N)n1	0
C=CCOc1ccccc1OCC(O)CNC(C)C (centres undefined)	1
CCCCc1oc2ccccc2c1C(=O)c1cc(I)c(OCCN(CC)CC)c(I)c1	20
COc1cc([C@@H]2c3cc4c(cc3[C@@H](O[C@@H]3O[C@@H]5CO[C@@H](C)O[C@H]5[C@H](O)[C@H]3O)[C@H]3COC(=O)[C@H]23)OCO4)cc(OC)c1O [ETOPOSIDE]	2

---

Item-by-item account of Hepatotoxicity (moderate)
Experiment: Highest frequency of moderate liver toxicity observed during clinical trials, expressed as a percentage. [column '% BIOL' in source]
Details: human
reported metric: Hepatotoxicity (moderate)

>>> df
                                   molecule  recorded_result
0  CCC1=C(C)CN(C(=O)NCCc2ccc(S(=O)(=O)NC(=O)N[C@H]3CC[C@H](C)CC3)cc2)C1=O [GLIMEPIRIDE]               0%
1  N=C(N)NC(=O)c1nc(Cl)c(N)nc1N [AMILORIDE]             1.1%
2  CO/N=C(\C(=O)N[C@@H]1C(=O)N2C(C(=O)O)=C(COC(N)=O)CS[C@H]12)c1ccco1            29.1%
3     Cc1nnc2n1-c1ccc(Cl)cc1C(c1ccccc1)=NC2               8%
